Attribution: patent US20220251192A1

target: T1, CD33 (UniProt P20138 18-259, limits assumed); assay: SPR, Biacore T-200, CD33 amine-coupled on CM5 chip, antibody as analyte (31-500 nM)
T1 construct: CD33 protein used as the active surface in the Biacore assay (about 1000 RU); also called Siglec-3; SIGLEC3
T1 sequence (P20138 18-259 limits assumed): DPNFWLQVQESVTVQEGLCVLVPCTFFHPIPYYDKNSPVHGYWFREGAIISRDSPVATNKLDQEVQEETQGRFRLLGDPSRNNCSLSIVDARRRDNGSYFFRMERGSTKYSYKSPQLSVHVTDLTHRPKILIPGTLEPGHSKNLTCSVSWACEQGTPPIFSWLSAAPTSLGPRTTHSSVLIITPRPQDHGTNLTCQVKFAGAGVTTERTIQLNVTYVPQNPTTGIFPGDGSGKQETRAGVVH
parameter measured: koff (s⁻¹)
Output spec: scalar in s⁻¹, unitless text.

Give koff for My96-H1L2 (antibody, human IgG1, V domains shown, Humanized My96 IgG (human IgG1 frameworks), expressed in DG44 cells; also called humanized My96 VH-1/VL-2) VH: QVQLVQSGAEVKKPGASVKVSCKASGYTFTSYYMHWVRQAPGQGLEWMGVIYPGNDDISYAQKFQGRVTMTADTSTSTVYMELSSLRSEDTAVYYCAREVRLRYFDVWGAGTTVTVSS VL: NIVLTQSPDSLAVSLGERATINCKSSQSVFFSSSQKNYLAWYQQKPGQPPKLLIYWASTRESGVPDRFSGSGSGTDFTLTISSLQAEDVAVYYCHQYLSSRTFGGGTKLEIK 1.03e-07

Give koff for My96-H2L2 (antibody, human IgG1, V domains shown, Humanized My96 IgG (human IgG1 frameworks), expressed in DG44 cells; also called humanized My96 VH-2/VL-2) VH: QVQLVQSGAEVKKPGASVKVSCKASGYTFTSYYMHWVRQAPGQGLEWMGVIYPGNDDISYNQKFQGRVTMTADKSTSTVYMELSSLRSEDTAVYYCAREVRLRYFDVWGAGTTVTVSS VL: NIVLTQSPDSLAVSLGERATINCKSSQSVFFSSSQKNYLAWYQQKPGQPPKLLIYWASTRESGVPDRFSGSGSGTDFTLTISSLQAEDVAVYYCHQYLSSRTFGGGTKLEIK 1.42e-07

Give koff for My96-H3L2 (antibody, human IgG1, V domains shown, Humanized My96 IgG (human IgG1 frameworks), expressed in DG44 cells; also called hMy96 L2H3 (variable domains as in BsAb BC248); humanized My96 VH-3/VL-2) VH: QVQLVQSGAEVKKPGASVKVSCKASGYTFTSYYIHWVRQAPGQGLEWMGVIYPGNDDISYAQKFQGRVTITADKSATTAYMELSSLRSEDTAVYYCAREVRLRYFDVWGQGTLVTVSS VL: NIVLTQSPDSLAVSLGERATINCKSSQSVFFSSSQKNYLAWYQQKPGQPPKLLIYWASTRESGVPDRFSGSGSGTDFTLTISSLQAEDVAVYYCHQYLSSRTFGGGTKLEIK 1.6e-07

Give koff for chMy96 (antibody, V domains shown, also called chimeric form of My96; chimeric anti-CD33 antibody) VH: QVQLQQPGAEVVKPGASVKMSCKASGYTFTSYYIHWIKQTPGQGLEWVGVIYPGNDDISYNQKFKGKATLTADKSSTTAYMQLSSLTSEDSAVYYCAREVRLRYFDVWGAGTTVTVSS VL: NIMLTQSPSSLAVSAGEKVTMSCKSSQSVFFSSSQKNYLAWYQQIPGQSPKLLIYWASTRESGVPDRFTGSGSGTDFTLTISSVQSEDLAIYYCHQYLSSRTFGGGTKLEIK 2.38e-07

Give koff for My96-H3L3 (antibody, human IgG1, V domains shown, Humanized My96 IgG (human IgG1 frameworks), expressed in DG44 cells; also called humanized My96 VH-3/VL-3) VH: QVQLVQSGAEVKKPGASVKVSCKASGYTFTSYYIHWVRQAPGQGLEWMGVIYPGNDDISYAQKFQGRVTITADKSATTAYMELSSLRSEDTAVYYCAREVRLRYFDVWGQGTLVTVSS VL: NIVLTQSPDSLAVSLGERATINCKSSQSVFFSSSQKNYLAWYQQRPGQPPKLLIYWASTRESGVPDRFSGSGSGTDFTLTISRLQAEDVAVYYCHQYLSSRTFGGGTKVEIK 2.03e-07

Give koff for My96-H1L3 (antibody, human IgG1, V domains shown, Humanized My96 IgG (human IgG1 frameworks), expressed in DG44 cells; also called humanized My96 VH-1/VL-3) VH: QVQLVQSGAEVKKPGASVKVSCKASGYTFTSYYMHWVRQAPGQGLEWMGVIYPGNDDISYAQKFQGRVTMTADTSTSTVYMELSSLRSEDTAVYYCAREVRLRYFDVWGAGTTVTVSS VL: NIVLTQSPDSLAVSLGERATINCKSSQSVFFSSSQKNYLAWYQQRPGQPPKLLIYWASTRESGVPDRFSGSGSGTDFTLTISRLQAEDVAVYYCHQYLSSRTFGGGTKVEIK 4.95e-07

Give koff for My96-H2L3 (antibody, human IgG1, V domains shown, Humanized My96 IgG (human IgG1 frameworks), expressed in DG44 cells; also called humanized My96 VH-2/VL-3) VH: QVQLVQSGAEVKKPGASVKVSCKASGYTFTSYYMHWVRQAPGQGLEWMGVIYPGNDDISYNQKFQGRVTMTADKSTSTVYMELSSLRSEDTAVYYCAREVRLRYFDVWGAGTTVTVSS VL: NIVLTQSPDSLAVSLGERATINCKSSQSVFFSSSQKNYLAWYQQRPGQPPKLLIYWASTRESGVPDRFSGSGSGTDFTLTISRLQAEDVAVYYCHQYLSSRTFGGGTKVEIK 9.16e-08
